- Experimental protocol: Aqueous solubility of guests and solubilization by γ-CD thioethers
- Assay type: physicochemical
- Condition summary: water, thermodynamic from solid, [Na2SO4] 0.0 M, read-out: [COU]0 solubility of COU
Property name: solubility at 72 h (mM)
A number alone suffices; assume mM.

Quick check: solubility at 72 h of O=c1ccc2ccccc2o1 [COU, coumarin] ? 15.2

----------
- Experimental protocol: Aqueous solubility of guests and solubilization by γ-CD thioethers
- Assay type: physicochemical
- Condition summary: water with Na2SO4, thermodynamic from solid, [Na2SO4] 0.5 M, read-out: [COU]0 solubility of COU
Property name: solubility at 72 h (mM)
A number alone suffices; assume mM.

Quick check: solubility at 72 h of O=c1ccc2ccccc2o1 [COU, coumarin] ? 8.5
